Below are AC50 values recorded for Histamine H3 receptor (Homo sapiens, UniProt Q9Y5N1).

Query: Report measured AC50; entry is C[C@H]1C[C@H]2[C@@H]3CCC4=CC(=O)C=C[C@]4(C)[C@@]3(Cl)[C@@H](O)C[C@]2(C)[C@@]1(O)C(=O)CO
Response: > 10 µM

Query: Report measured AC50; entry is CCCC[C@H](C)C[C@H](O)/C=C/[C@H]1[C@H](O)CC(=O)[C@@H]1CCCC/C=C/C(=O)O
Response: > 30 µM

Query: Report measured AC50; entry is CC(=O)OCC(CCn1cnc2cnc(N)nc21)COC(C)=O
Response: > 10 µM

====

Below are AC50 values recorded for Vasopressin V2 receptor (Homo sapiens, UniProt P30518).

Worked cases, AC50 given:
[[record]]
compound = "CN1[C@@H]2CC[C@H]1C[C@@H](OC(=O)c1c[nH]c3ccccc13)C2 [TROPISETRON]"
property_label = "AC50"
measured_result = "> 30 µM"

[[record]]
compound = "CC(C)OC(=O)C(C(=O)OC(C)C)=C1SC=CS1 [MALOTILATE]"
property_label = "AC50"
measured_result = "> 30 µM"

[[record]]
compound = "CC(=O)OCC(CCn1cnc2cnc(N)nc21)COC(C)=O [FAMCICLOVIR]"
property_label = "AC50"
measured_result = "> 30 µM"

[[record]]
compound = "COC1=C(OC)C(=O)C(CCCCCCCCCCO)=C(C)C1=O [IDEBENONE]"
property_label = "AC50"
measured_result = "10.9 µM"


Could you now consider this next compound?
Query: State AC50 (Vasopressin V2 receptor (Homo sapiens, UniProt P30518)) of CCCCC[C@H](O)/C=C/[C@H]1[C@H](O)CC(=O)[C@@H]1C/C=C\CCCC(=O)O [DINOPROSTONE] .
Response: > 30 µM

====

Target: 5-hydroxytryptamine receptor 1A (Homo sapiens, UniProt P08908); note: assay procedure not described here
Sequence (P08908 whole entry): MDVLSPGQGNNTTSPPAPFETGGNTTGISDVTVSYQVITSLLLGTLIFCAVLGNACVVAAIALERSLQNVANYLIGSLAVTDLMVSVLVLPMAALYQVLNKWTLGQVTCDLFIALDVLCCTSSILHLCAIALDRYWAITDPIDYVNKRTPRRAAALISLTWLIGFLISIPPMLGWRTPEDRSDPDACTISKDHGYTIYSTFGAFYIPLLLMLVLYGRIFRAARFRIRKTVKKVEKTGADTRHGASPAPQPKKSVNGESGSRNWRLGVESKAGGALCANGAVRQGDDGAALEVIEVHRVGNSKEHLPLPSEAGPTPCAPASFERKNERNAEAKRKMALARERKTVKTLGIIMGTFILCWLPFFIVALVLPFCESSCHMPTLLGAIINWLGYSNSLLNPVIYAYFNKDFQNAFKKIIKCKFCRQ
Format: functional, cell-based
Property Label: AC50

Worked cases, AC50 given:
[[record]]
compound = "CC(=O)OCC[N+](C)(C)C"
measured_result = "0.15 µM"

[[record]]
compound = "C=CC1=C(C(=O)O)N2C(=O)[C@@H](NC(=O)/C(=N\\OCC(=O)O)c3csc(N)n3)[C@H]2SC1"
measured_result = "> 30 µM"

[[record]]
compound = "CCN(CC)C(=O)C1(c2ccccc2)CC1CN (stereo unspecified)"
measured_result = "> 30 µM"

[[record]]
compound = "CCn1cc(C(=O)O)c(=O)c2cc(F)c(N3CCN(C)CC3)cc21"
measured_result = "> 30 µM"

[[record]]
compound = "COc1ccc(Cc2nccc3cc(OC)c(OC)cc23)cc1OC"
measured_result = "> 30 µM"


Query: Report measured AC50; entry is N=C(N)c1ccc2cc(OC(=O)c3ccc(N=C(N)N)cc3)ccc2c1
Response: > 30 µM

Query: Report measured AC50; entry is Cc1cnc(NC(=O)C2=C(O)c3ccccc3S(=O)(=O)N2C)s1
Response: > 10 µM

Query: Report measured AC50; entry is C=C[C@@]1(C)CC(=O)[C@]2(O)[C@@]3(C)[C@@H](O)CCC(C)(C)[C@@H]3[C@H](OC(=O)CCN(C)C)[C@H](OC(C)=O)[C@@]2(C)O1
Response: > 30 µM

Query: Report measured AC50; entry is CC(C)CC(N(C)C)C1(c2ccc(Cl)cc2)CCC1 (stereo unspecified)
Response: > 30 µM

Query: Report measured AC50; entry is O=C(O)c1ccccc1OP(=O)(O)O
Response: > 30 µM

====

Below are AC50 values recorded for Growth hormone secretagogue receptor type 1 (Homo sapiens, UniProt Q92847).

Worked cases, AC50 given:
[[record]]
molecule = "CCCCNc1ccc(C(=O)OCCN(C)C)cc1 [TETRACAINE]"
property_label = "AC50"
measured_result = "> 30 µM"

[[record]]
molecule = "CCN(CC)CCOC(=O)c1ccc(N)cc1Cl [CHLOROPROCAINE]"
property_label = "AC50"
measured_result = "> 30 µM"

[[record]]
molecule = "Cc1cnc(NC(=O)C2=C(O)c3ccccc3S(=O)(=O)N2C)s1 [MELOXICAM]"
property_label = "AC50"
measured_result = "> 30 µM"

[[record]]
molecule = "OCCN1CCN(CC/C=C2/c3ccccc3Sc3ccc(Cl)cc32)CC1 [ZUCLOPENTHIXOL]"
property_label = "AC50"
measured_result = "> 10 µM"


Query: Report measured AC50; entry is CO[C@@]1(NC(=O)Cc2cccs2)C(=O)N2C(C(=O)O)=C(COC(N)=O)CS[C@@H]21 [CEFOXITIN]
Response: > 30 µM

====

Target: UniProtKB P08913
Sequence (P08913 whole entry): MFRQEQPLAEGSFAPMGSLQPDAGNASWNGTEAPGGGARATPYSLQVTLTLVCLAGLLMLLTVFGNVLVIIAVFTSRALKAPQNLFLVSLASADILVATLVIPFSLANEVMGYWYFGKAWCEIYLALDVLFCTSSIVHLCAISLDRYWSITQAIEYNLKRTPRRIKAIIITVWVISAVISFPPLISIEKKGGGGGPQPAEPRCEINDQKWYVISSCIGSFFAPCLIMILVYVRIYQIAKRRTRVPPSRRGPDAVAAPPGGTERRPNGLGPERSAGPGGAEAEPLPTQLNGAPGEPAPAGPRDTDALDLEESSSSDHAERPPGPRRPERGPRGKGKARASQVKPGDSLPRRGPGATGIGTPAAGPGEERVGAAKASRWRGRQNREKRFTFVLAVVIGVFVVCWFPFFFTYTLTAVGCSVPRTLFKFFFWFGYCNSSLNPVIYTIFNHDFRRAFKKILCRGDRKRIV
Assay type: functional, cell-based
AC50 values by entry

[[record]]
compound = "CC(C)(C)NC[C@H](O)COc1nsnc1N1CCOCC1"
measured_on = "UniProtKB P08913"
measured_result = "> 30 µM"

[[record]]
compound = "CC(C)c1cc2c(cc1S(=O)(=O)O)[C@@]1(C)CCC[C@@](C)(C(=O)O)[C@@H]1CC2"
measured_on = "UniProtKB P08913"
measured_result = "> 30 µM"

[[record]]
compound = "C[C@]12CC[C@H](O)CC1=CC[C@@H]1[C@@H]2CC[C@]2(C)C(c3cccnc3)=CC[C@@H]12"
measured_on = "UniProtKB P08913"
measured_result = "> 10 µM"

[[record]]
compound = "Cc1cccc(N(C)C(=S)Oc2ccc3ccccc3c2)c1 [TOLNAFTATE]"
measured_on = "UniProtKB P08913"
measured_result = "> 10 µM"

[[record]]
compound = "CC1(C)C(/C=C/C=C/C=C/C=C2\\N(CCCCS(=O)(=O)O)c3ccc4ccccc4c3C2(C)C)=[N+](CCCCS(=O)(=O)[O-])c2ccc3ccccc3c21 [INDOCYANINE GREEN ACID FORM]"
measured_on = "UniProtKB P08913"
measured_result = "> 30 µM"

[[record]]
compound = "CN1CCN(CCCN2c3ccccc3Sc3ccc(S(=O)(=O)N(C)C)cc32)CC1"
measured_on = "UniProtKB P08913"
measured_result = "> 30 µM"

[[record]]
compound = "CC1(C)C(C=C(Cl)Cl)C1C(=O)OCc1cccc(Oc2ccccc2)c1 (configuration not stated)"
measured_on = "UniProtKB P08913"
measured_result = "9.7 µM"

[[record]]
compound = "CO/N=C(\\C(=O)N[C@@H]1C(=O)N2C(C(=O)O)=C(COC(N)=O)CS[C@H]12)c1ccco1"
measured_on = "UniProtKB P08913"
measured_result = "> 30 µM"


Query: Report measured AC50; entry is CC(C)C[C@H](CN)CC(=O)O
Response: > 30 µM

====

target: Adenosine receptor A2a (Homo sapiens, UniProt P29274); note: assay procedure not described here
Sequence (P29274 whole entry): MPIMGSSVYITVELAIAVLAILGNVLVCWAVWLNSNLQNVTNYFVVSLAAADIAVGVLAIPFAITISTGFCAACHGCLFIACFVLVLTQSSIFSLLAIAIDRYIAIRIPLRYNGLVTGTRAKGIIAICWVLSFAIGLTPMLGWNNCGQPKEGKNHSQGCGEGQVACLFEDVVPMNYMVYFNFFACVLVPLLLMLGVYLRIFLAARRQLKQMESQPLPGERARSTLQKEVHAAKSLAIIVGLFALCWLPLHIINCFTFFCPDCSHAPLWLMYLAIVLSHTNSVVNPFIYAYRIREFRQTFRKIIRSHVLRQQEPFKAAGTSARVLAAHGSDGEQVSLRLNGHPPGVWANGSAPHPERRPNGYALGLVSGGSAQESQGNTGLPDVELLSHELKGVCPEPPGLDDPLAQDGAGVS
Property Label: AC50

Query: State AC50 (Adenosine receptor A2a (Homo sapiens, UniProt P29274)) of CCCN(CCc1cccs1)[C@H]1CCc2c(O)cccc2C1 .
Response: > 30 µM

Query: State AC50 (Adenosine receptor A2a (Homo sapiens, UniProt P29274)) of COC(=O)N[C@@H](C)CNc1nccc(-c2cn(C(C)C)nc2-c2cc(Cl)cc(NS(C)(=O)=O)c2F)n1 .
Response: > 30 µM

Query: State AC50 (Adenosine receptor A2a (Homo sapiens, UniProt P29274)) of NS(=O)(=O)c1cc2c(cc1C(F)(F)F)NC(Cc1ccccc1)NS2(=O)=O (centres undefined) [BENDROFLUMETHIAZIDE] .
Response: > 10 µM

Query: State AC50 (Adenosine receptor A2a (Homo sapiens, UniProt P29274)) of Cc1cnc(NC(=O)C2=C(O)c3ccccc3S(=O)(=O)N2C)s1 .
Response: > 30 µM

Query: State AC50 (Adenosine receptor A2a (Homo sapiens, UniProt P29274)) of COc1cccc(N(C)C(=S)Oc2ccc3c(c2)CCCC3)n1 [LIRANAFTATE] .
Response: > 30 µM

Query: State AC50 (Adenosine receptor A2a (Homo sapiens, UniProt P29274)) of CCCCCCOC(=O)CCC(=O)CN [HEXAMINOLEVULINATE] .
Response: > 30 µM

Query: State AC50 (Adenosine receptor A2a (Homo sapiens, UniProt P29274)) of NS(=O)(=O)c1cc(C2(O)NC(=O)c3ccccc32)ccc1Cl (centres undefined) .
Response: > 10 µM

Query: State AC50 (Adenosine receptor A2a (Homo sapiens, UniProt P29274)) of CC(=O)c1ccc2c(c1)N(CCCN1CCC(CCO)CC1)c1ccccc1S2 .
Response: > 30 µM

Query: State AC50 (Adenosine receptor A2a (Homo sapiens, UniProt P29274)) of C[C@H]1Oc2cc(cnc2N)-c2c(nn(C)c2C#N)CN(C)C(=O)c2ccc(F)cc21 .
Response: > 30 µM

Provenance of the data: ChEMBL document CHEMBL5291721
